- Tested system: UniProt:P29274
- Sequence (P29274 whole entry): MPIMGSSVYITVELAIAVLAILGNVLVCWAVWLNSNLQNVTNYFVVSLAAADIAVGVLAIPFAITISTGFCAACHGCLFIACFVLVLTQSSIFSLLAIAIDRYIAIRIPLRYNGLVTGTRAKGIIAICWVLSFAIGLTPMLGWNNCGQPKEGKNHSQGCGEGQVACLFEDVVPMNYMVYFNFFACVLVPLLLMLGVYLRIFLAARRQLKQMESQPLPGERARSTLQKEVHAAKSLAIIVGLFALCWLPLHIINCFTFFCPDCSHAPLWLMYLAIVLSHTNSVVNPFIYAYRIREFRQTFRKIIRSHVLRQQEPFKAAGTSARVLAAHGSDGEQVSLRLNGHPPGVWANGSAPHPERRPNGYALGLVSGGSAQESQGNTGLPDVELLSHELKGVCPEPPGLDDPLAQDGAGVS
- Assay overview: Displacement of [3H]ZM241385 from human adenosine A2a receptor expressed in CHO cells at 1 uM by scintillation counting
- Format: cell-based
# if value of inhibition reaches 3%, tag label 1; if it stays below, tag label 0

molecular_string=CC(C)OC(=O)c1cc2c3ccccc3nc(O)n2n1 answer_label="label 0"
molecular_string=O=C(NCc1ccccc1)c1cc2c3ccccc3[nH]c(=O)n2n1 answer_label="label 1"

Problem: Exam item: decide whether the reported inhibition for COc1ccc(-c2cc3c4ccccc4nc(N)n3n2)cc1 is at least 3%.
Result: label 1

Problem: Item: Oc1ccccc1-c1n[nH]c(-c2ccccc2)n1
Result: label 0

Problem: Please answer likewise for Nc1nc2ccccc2c2cc(-c3ccccc3)nn12
Result: label 1
